These entries and their values trace back to patent US12281122B1.

system: SKBR3 (PI3Kα-Wild Type) cell line; assay: HTRF phospho-AKT(S473) cell assay in SKBR3 cells; assay type: cell-based, human; conditions: Homo sapiens, SK-BR-3; HTRF phospho-AKT(S473), SKBR3 (PI3Kα-Wild Type) cells, 2 hours compound incubation, PDGF-BB stimulated
Assignment: determine reported IC50 for the given compounds.

Answered cases to consult:
- structure.smiles.string: "Cc1cc([C@@H](C)Nc2ccc(Cl)nc2C(=O)NS(C)(=O)=O)c2nc(N3CCC(c4nnc(C)s4)CC3)n(C)c(=O)c2c1"
  IC50: "1 to 5 µM"
- structure.smiles.string: "Cc1cc([C@@H](C)Nc2ccc(Cl)nc2C(=O)NS(C)(=O)=O)c2nc(-c3cc4cn(C)nc4cn3)n(C)c(=O)c2c1"
  IC50: "1 to 5 µM"
- structure.smiles.string: "Cc1cc([C@@H](C)Nc2ccc(Cl)nc2C(=O)NS(C)(=O)=O)c2nc(N3C[C@@H]4C[C@H]3CN4c3ncc(C#N)cc3F)n(C)c(=O)c2c1"
  IC50: "≥ 5 µM"
- structure.smiles.string: "Cc1cc([C@@H](C)Nc2ccc(Cl)nc2C(=O)NS(C)(=O)=O)c2nc(N3C[C@@H]4C[C@H]3CN4c3ccccn3)n(C)c(=O)c2c1"
  IC50: "≥ 5 µM"
- structure.smiles.string: "Cc1cc([C@@H](C)Nc2ccc(Cl)nc2C(=O)NS(C)(=O)=O)c2nc(N3C[C@@H]4C[C@H]3CN4c3cnc(C)cn3)n(C)c(=O)c2c1"
  IC50: "≥ 5 µM"

Continue with the compound presented below.
Q: Provide one value: measured IC50 of Cc1cc([C@@H](C)Nc2ccc(Cl)nc2C(=O)NS(C)(=O)=O)c2nc(N3C[C@@H]4[C@H](C3)[C@H]4n3cc(F)c(C)n3)n(C)c(=O)c2c1
A: ≥ 5 µM

---

tested on: SKBR3 (PI3Kα-Wild Type) cell line; test: HTRF phospho-AKT(S473) cell assay in SKBR3 cells; type: cell-based, human; settings: Homo sapiens, SK-BR-3; SKBR3 (PI3Kα-Wild Type) cells, HTRF phospho-AKT(S473), 2 hours compound incubation, PDGF-BB stimulated
Would you kindly list IC50 for each of these compounds?

Some compounds with known IC50 results, for comparison:
- compound: "COc1cn(C)nc1C1CCN(c2nc3c([C@@H](C)Nc4ccc(Cl)nc4C(=O)NS(C)(=O)=O)cc(C)cc3c(=O)n2C)CC1 [Compound 316]"
  target.or.test.system: "SKBR3 (PI3Kα-Wild Type) cell line"
  endpoint.label: "IC50"
  obs.value: "1 to 5 µM"
- compound: "Cc1cc([C@@H](C)Nc2ccc(Cl)nc2C(=O)NS(C)(=O)=O)c2nc(N3CCC(c4cncc(C)n4)CC3)n(C)c(=O)c2c1 [Compound 399]"
  target.or.test.system: "SKBR3 (PI3Kα-Wild Type) cell line"
  endpoint.label: "IC50"
  obs.value: "≥ 5 µM"
- compound: "Cc1cc([C@@H](C)Nc2ccc(Cl)nc2C(=O)NS(C)(=O)=O)c2nc(N3CCC(F)(F)C[C@@H]3C)n(C)c(=O)c2c1 (single isomer, unassigned) [Compound 42]"
  target.or.test.system: "SKBR3 (PI3Kα-Wild Type) cell line"
  endpoint.label: "IC50"
  obs.value: "1 to 5 µM"
- compound: "Cc1cc([C@@H](C)Nc2ccc(Cl)nc2C(=O)NS(C)(=O)=O)c2nc(N3C[C@@H]4[C@H](C3)[C@H]4n3ccc(C)n3)n(C)c(=O)c2c1 [Compound 416]"
  target.or.test.system: "SKBR3 (PI3Kα-Wild Type) cell line"
  endpoint.label: "IC50"
  obs.value: "1 to 5 µM"
- compound: "Cc1cc([C@@H](C)Nc2cn(C)nc2C(=O)NS(C)(=O)=O)c2nc(N3Cc4ccc(F)cc4C3)n(C)c(=O)c2c1 (single isomer, unassigned) [Compound 106]"
  target.or.test.system: "SKBR3 (PI3Kα-Wild Type) cell line"
  endpoint.label: "IC50"
  obs.value: "≥ 5 µM"

Kindly consider the entry below.
Q: Given C[C@@H](Nc1ccc(Cl)nc1C(=O)NS(C)(=O)=O)c1cc(C2CC2)cc2c(=O)n(C)c(N3C[C@@H]4[C@H](C3)[C@H]4c3cnn(C)c3)nc12 [Compound 386] , respond with its IC50.
A: 1 to 5 µM

---

system: T47D (PI3Kα-H1047R) cell line; assay: HTRF phospho-AKT(S473) cell assay in T47D cells; type: cell-based, human; conditions: Homo sapiens; HTRF phospho-AKT(S473), T47D (PI3Kα-H1047R) cells, 2 hours compound incubation
Give IC50 for every item shown.

As a guide, the following entries are already answered.
- structure.smiles.string: "Cc1cc([C@@H](C)Nc2ccc(Cl)nc2C(=O)NS(C)(=O)=O)c2nc(N3[C@@H]4CC[C@H]3C[C@H](n3ncc5ccccc53)C4)n(C)c(=O)c2c1"
  IC50: "250 to 500 nM"
- structure.smiles.string: "Cc1cc([C@@H](C)Nc2ccc(Cl)nc2C(=O)NS(C)(=O)=O)c2nc(-c3ccc4nn(C(F)F)cc4c3)n(C)c(=O)c2c1"
  IC50: "< 250 nM"
- structure.smiles.string: "Cc1cc([C@@H](C)Nc2ccc(Cl)nc2C(=O)NS(C)(=O)=O)c2nc(N3CCC(c4cn(C(C)C)nn4)CC3)n(C)c(=O)c2c1"
  IC50: "< 250 nM"
- structure.smiles.string: "Cc1cc([C@@H](C)Nc2ccc(Cl)nc2C(=O)NS(C)(=O)=O)c2nc(N3CCC(c4nc(C)nn4C(F)F)CC3)n(C)c(=O)c2c1"
  IC50: "250 to 500 nM"
- structure.smiles.string: "Cc1cc([C@@H](C)Nc2ccc(Cl)nc2C(=O)NS(C)(=O)=O)c2nc(N3C[C@@H]4[C@H](C3)[C@H]4n3cnc(C)n3)n(C)c(=O)c2c1"
  IC50: "250 to 500 nM"

Q: # return recorded IC50 for entry COc1c([C@H]2[C@@H]3CN(c4nc5c([C@@H](C)Nc6ccc(Cl)nc6C(=O)NS(C)(=O)=O)cc(C)cc5c(=O)n4C)C[C@@H]32)cnn1C
A: < 250 nM

---

system: SKBR3 (PI3Kα-Wild Type) cell line; assay: HTRF phospho-AKT(S473) cell assay in SKBR3 cells; type: cell-based, human; settings: Homo sapiens, SK-BR-3; HTRF phospho-AKT(S473), SKBR3 (PI3Kα-Wild Type) cells, 2 hours compound incubation, PDGF-BB stimulated
pIC50: −log10 of the molar value.
Could you please report measured pIC50 for the items listed next?

Observe how each entry below is paired with its result.
- compound: "Cc1cc([C@@H](C)Nc2ccc(Cl)nc2C(=O)NS(C)(=O)=O)c2nc(N3CCC(c4ccn(C5COC5)n4)CC3)n(C)c(=O)c2c1 [Compound 447]"
  obs.value: "5.30 to 6.00"
- compound: "Cc1cc([C@@H](C)Nc2ccc(Cl)nc2C(=O)NS(C)(=O)=O)c2nc(N3C[C@H]4C[C@@H]3CN4c3ccc(C#N)cn3)n(C)c(=O)c2c1 [Compound 601]"
  obs.value: "5.30 to 6.00"

For every listed record, write down its pIC50.
1. Cc1cc([C@@H](C)Nc2ccc(Cl)nc2C(=O)NS(C)(=O)=O)c2nc(N3[C@@H]4CC[C@H]3C[C@@H](n3cc(C)cn3)C4)n(C)c(=O)c2c1 [Compound 482]
2. COc1cc([C@H]2[C@@H]3CN(c4nc5c([C@@H](C)Nc6ccc(Cl)nc6C(=O)NS(C)(=O)=O)cc(C)cc5c(=O)n4C)C[C@@H]32)ccn1 [Compound 474]

A:
1: 5.30 to 6.00; 2: ≤ 5.30

Give me pIC50 for each of these compounds, listed below.
1. Cc1cc([C@@H](C)Nc2ccc(Cl)nc2C(=O)NS(C)(=O)=O)c2nc(N3CCC(c4cnn(C(C)C)n4)CC3)n(C)c(=O)c2c1 [Compound 744]
2. Cc1cc([C@@H](C)Nc2ccc(Cl)nc2C(=O)NS(C)(=O)=O)c2nc(N3CCC(c4cn(C)nn4)CC3)n(C)c(=O)c2c1 [Compound 480]

A:
1: ≤ 5.30; 2: 5.30 to 6.00

---

Exercise: for every item that follows, state its recorded pIC50.
molecular target: PI3Kα H1047R (Homo sapiens, UniProt P42336, H1047R); test: PI3Kα H1047R enzyme assay (Transcreener ADP2 TR-FRET Red Assay); conditions: purified recombinant full-length protein; 2 hours pre-incubation with compound
Sequence (P42336 whole entry H1047R): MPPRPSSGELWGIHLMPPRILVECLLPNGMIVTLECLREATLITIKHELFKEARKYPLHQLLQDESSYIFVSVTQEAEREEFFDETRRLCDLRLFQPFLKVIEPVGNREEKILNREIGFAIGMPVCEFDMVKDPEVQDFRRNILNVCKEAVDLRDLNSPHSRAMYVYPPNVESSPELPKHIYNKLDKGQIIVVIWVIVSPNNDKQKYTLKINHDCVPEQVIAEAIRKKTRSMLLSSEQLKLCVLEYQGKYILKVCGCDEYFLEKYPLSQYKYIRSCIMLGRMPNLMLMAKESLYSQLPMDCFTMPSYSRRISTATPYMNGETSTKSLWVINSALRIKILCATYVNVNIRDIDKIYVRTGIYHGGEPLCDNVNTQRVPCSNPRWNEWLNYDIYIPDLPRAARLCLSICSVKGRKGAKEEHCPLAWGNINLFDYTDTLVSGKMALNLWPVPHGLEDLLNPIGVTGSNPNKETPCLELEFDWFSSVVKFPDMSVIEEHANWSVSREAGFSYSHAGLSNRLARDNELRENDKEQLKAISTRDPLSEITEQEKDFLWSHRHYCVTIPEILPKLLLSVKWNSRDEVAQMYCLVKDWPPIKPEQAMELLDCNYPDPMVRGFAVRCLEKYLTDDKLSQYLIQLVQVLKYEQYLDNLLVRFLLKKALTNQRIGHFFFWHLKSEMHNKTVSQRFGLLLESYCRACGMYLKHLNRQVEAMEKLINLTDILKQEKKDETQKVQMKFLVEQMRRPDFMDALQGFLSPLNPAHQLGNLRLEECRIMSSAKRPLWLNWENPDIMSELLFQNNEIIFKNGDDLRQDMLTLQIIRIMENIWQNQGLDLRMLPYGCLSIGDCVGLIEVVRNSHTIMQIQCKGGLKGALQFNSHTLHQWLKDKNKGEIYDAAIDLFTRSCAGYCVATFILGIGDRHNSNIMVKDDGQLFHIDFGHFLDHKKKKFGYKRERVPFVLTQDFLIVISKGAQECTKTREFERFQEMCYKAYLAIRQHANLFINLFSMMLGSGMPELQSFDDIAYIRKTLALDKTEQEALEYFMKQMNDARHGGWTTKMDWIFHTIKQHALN
Sequence (P27986 2-724 partner): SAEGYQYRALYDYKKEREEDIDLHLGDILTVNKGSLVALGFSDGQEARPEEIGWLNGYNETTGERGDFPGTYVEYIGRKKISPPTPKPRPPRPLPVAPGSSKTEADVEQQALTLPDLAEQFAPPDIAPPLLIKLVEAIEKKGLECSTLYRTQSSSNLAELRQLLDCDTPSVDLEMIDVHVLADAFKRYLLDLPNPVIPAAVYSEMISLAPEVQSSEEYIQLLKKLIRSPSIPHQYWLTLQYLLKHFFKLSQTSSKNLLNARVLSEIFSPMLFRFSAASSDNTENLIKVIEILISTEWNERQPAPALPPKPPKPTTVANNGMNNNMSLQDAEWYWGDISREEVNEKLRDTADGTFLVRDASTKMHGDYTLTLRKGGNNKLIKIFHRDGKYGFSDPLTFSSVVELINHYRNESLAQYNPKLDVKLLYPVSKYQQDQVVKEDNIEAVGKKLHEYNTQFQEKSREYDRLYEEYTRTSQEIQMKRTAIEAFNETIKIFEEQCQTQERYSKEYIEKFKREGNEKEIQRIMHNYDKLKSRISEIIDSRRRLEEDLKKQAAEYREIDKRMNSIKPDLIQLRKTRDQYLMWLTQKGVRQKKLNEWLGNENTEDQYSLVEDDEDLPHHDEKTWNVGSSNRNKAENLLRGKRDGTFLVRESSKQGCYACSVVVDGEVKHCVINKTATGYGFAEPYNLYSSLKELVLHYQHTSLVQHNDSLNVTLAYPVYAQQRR
pIC50: −log10 of the molar value.

Solved cases below.
- compound: "C[C@@H](Nc1ccc(Cl)nc1C(=O)NS(C)(=O)=O)c1cccc2c(=O)n(C)c(N3Cc4ccc(F)cc4C3)nc12"
  obs.value: "> 7.00"
- compound: "Cc1cc([C@H](C)Nc2ccccc2S(=O)(=O)NC(=O)C(F)F)c2nc(N3Cc4ccc(F)cc4C3)n(C)c(=O)c2c1 (single isomer, unassigned)"
  obs.value: "≤ 6.00"

Your task in this section: give pIC50 for each listed record.
1. Cc1cc([C@@H](C)Nc2ccc(Cl)nc2C(=O)NS(C)(=O)=O)c2nc(NC3CCCC3)n(C)c(=O)c2c1
2. Cc1cc([C@@H](C)Nc2ccc(Cl)nc2C(=O)NS(C)(=O)=O)c2nc(NCc3ccc(F)cc3C)n(C)c(=O)c2c1
3. Cc1cc([C@@H](C)Nc2ccc(Cl)nc2C(=O)NS(C)(=O)=O)c2nc(N3CCC(F)(F)C[C@H]3C)n(C)c(=O)c2c1 (single isomer, unassigned)
4. Cc1cc([C@@H](C)Nc2ccc(Cl)nc2C(=O)NS(C)(=O)=O)c2nc(-c3cnc(C)nc3)n(C)c(=O)c2c1

A:
["6.30 to 6.60", "≤ 6.00", "6.00 to 6.30", "≤ 6.00"]
